Every entry's value here was drawn from ChEMBL document CHEMBL1800027.

measurement.notes: in vivo
condition.info: female, CD1, mouse, po, 30 mg/kg
Description: Half life in female CD1 mouse at 20 mg/kg, po by LC/MS/MS analysis
recorded.endpoint: half-life

List half-life for every entry below, keeping the order given.
1. NCC(=O)N1CCn2c(nc(-c3ccc(F)cc3)c2Nc2ccc(F)cc2)C1
2. CC(C)(N)C(=O)N1CCn2c(nc(-c3ccc(F)cc3)c2Nc2ccc(Cl)c(F)c2)C1
3. NCC(=O)N1CCn2c(nc(-c3cccc(F)c3)c2Nc2ccc(F)cc2)C1
4. CC(C)(N)C(=O)N1CCn2c(nc(-c3ccc(F)cc3)c2Nc2ccc(Cl)cc2)C1

1. 4.2 h
2. 9.1 h
3. 1 h
4. 37.6 h

====

What AUC(0-inf) was measured for each of the following?
measurement.notes: in vivo
condition.info: female, CD1, mouse, plasma, iv, 5 mg/kg
Numbers only, in µM·h.

# example entries with known answers
1. CC(C)(N)C(=O)N1CCn2c(nc(-c3ccc(F)cc3)c2Nc2ccc(Cl)c(F)c2)C1    25.5
2. NCC(=O)N1CCn2c(nc(-c3ccc(F)cc3)c2Nc2ccc(F)cc2)C1    1.07
3. CC(C)(N)C(=O)N1CCn2c(nc(-c3ccc(F)cc3)c2Nc2ccc(Cl)cc2)C1    2.98

# next compound below
What value of AUC(0-inf) has been reported for the following compound? "NCC(=O)N1CCn2c(nc(-c3cccc(F)c3)c2Nc2ccc(F)cc2)C1" 1.23

====

Tested on: Plasmodium falciparum
measurement.notes: Antimalarial activity against Plasmodium falciparum 3D7 infected in human erythrocytes assessed as decrease in parasitemia after 72 hrs
Assay type: functional, organism-based
condition.info: 3D7, 72 h
recorded.endpoint: IC50

1) NCCC(=O)N1CCn2c(nc(-c3ccc(F)cc3)c2Nc2ccc(F)cc2)C1    70 nM
2) C[C@H](N)C(=O)N1CCn2c(nc(-c3ccc(F)cc3)c2Nc2ccc(F)cc2)C1    90 nM
3) NCC(=O)N1CCn2c(nc(-c3ccccc3)c2Nc2ccc3c(c2)OCO3)C1    63 nM
4) N[C@@H](Cc1ccccc1)C(=O)N1CCn2c(nc(-c3ccc(F)cc3)c2Nc2ccc(F)cc2)C1    110 nM
5) CC(C)(N)C(=O)N1CCn2c(nc(-c3ccc(F)cc3)c2Nc2ccc(F)cc2)C1    20 nM

List IC50 for every entry below, keeping the order given.
1. NCC(=O)N1CCn2c(nc(-c3ccc(F)cc3)c2Nc2ccc(F)c(F)c2)C1
2. CC(C)(N)C(=O)N1CCn2c(nc(-c3ccc(F)cc3)c2Nc2cccnc2)C1
3. CC(C)(N)C(=O)N1CCn2c(nc(-c3ccc(F)cc3)c2Nc2ccc(Cl)c(F)c2)C1
4. CC(C)(N)C(=O)N1CCn2c(nc(-c3ccc(F)cc3)c2Nc2ccc(Cl)cc2)C1
5. NCC(=O)N1CCn2c(nc(-c3ccc(F)cc3)c2Nc2ccc(F)cc2)C1
6. CC(C)[C@H](N)C(=O)N1CCn2c(nc(-c3ccc(F)cc3)c2Nc2ccc(F)cc2)C1
7. Fc1ccc(Nc2c(-c3ccc(F)cc3)nc3n2CCNC3)cc1
8. C[C@@H]1CC[C@H]2[C@@H](C)C(=O)O[C@@H]3O[C@@]4(C)CC[C@@H]1[C@]32OO4

1: 30 nM; 2: 1410 nM; 3: 40 nM; 4: 30 nM; 5: 20 nM; 6: 30 nM; 7: 200 nM; 8: 12 nM

List IC50 for every entry below, keeping the order given.
1. CC(C)(N)C(=O)N1CCn2c(nc(-c3ccc(F)cc3)c2NC2CCCCC2)C1
2. NCC(=O)N1CCn2c(nc(-c3cccc(F)c3)c2Nc2ccc(F)cc2)C1
3. Fc1ccc(Nc2c(-c3ccc(F)cc3)nc3cnccn23)cc1
4. CC(C)(N)C(=O)N1CCn2c(nc(-c3ccc(F)cc3)c2Nc2cc(F)cc(F)c2)C1

1: 9610 nM; 2: 10 nM; 3: > 10 nM; 4: 220 nM

List IC50 for every entry below, keeping the order given.
1. NC(Cc1ccccc1)C(=O)N1CCn2c(nc(-c3ccccc3)c2Nc2ccc3c(c2)OCO3)C1 (racemic)
2. CC(C)(N)C(=O)N1CCn2c(nc(-c3ccc(F)cc3)c2Nc2ccc(F)c(F)c2)C1

235 nM
44 nM

====

Assay read-out pIC50; system under study: Voltage-gated inwardly rectifying potassium channel KCNH2 (Homo sapiens).
Sequence (Q12809 whole entry): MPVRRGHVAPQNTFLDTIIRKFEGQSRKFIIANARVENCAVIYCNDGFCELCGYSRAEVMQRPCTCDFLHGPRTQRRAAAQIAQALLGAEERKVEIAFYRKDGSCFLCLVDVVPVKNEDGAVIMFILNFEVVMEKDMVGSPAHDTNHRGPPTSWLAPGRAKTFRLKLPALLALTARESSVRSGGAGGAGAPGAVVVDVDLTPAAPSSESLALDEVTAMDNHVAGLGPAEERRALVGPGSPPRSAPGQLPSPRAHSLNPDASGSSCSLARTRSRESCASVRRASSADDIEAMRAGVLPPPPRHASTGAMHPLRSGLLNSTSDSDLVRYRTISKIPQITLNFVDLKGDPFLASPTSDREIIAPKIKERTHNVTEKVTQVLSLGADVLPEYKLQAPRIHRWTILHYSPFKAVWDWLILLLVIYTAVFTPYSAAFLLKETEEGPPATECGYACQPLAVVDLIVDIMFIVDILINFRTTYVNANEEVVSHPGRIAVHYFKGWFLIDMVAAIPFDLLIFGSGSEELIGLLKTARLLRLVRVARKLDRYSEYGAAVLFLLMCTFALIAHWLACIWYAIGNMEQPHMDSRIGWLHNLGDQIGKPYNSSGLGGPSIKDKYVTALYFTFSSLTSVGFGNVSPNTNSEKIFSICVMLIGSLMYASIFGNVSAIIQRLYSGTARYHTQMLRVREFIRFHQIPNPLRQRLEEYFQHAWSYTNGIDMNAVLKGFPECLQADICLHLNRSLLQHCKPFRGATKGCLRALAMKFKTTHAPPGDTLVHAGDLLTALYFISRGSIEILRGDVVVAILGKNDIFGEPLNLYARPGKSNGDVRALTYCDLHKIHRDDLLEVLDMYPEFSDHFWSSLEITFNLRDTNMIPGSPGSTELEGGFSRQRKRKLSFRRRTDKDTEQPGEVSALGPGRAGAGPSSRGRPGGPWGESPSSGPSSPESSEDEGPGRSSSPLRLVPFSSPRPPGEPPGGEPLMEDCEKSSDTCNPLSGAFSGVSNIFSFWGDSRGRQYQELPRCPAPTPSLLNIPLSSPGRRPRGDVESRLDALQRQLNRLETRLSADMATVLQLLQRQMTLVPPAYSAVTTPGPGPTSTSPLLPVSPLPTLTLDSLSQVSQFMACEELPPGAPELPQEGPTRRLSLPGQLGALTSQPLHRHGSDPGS
Answers are plain numbers, as −log10 of the molar value.

1) NCC(=O)N1CCn2c(nc(-c3ccccc3)c2Nc2ccc3c(c2)OCO3)C1    4.72
2) CC(C)(N)C(=O)N1CCn2c(nc(-c3ccc(F)cc3)c2Nc2ccc(Cl)c(F)c2)C1    5.25
3) CC(C)(N)C(=O)N1CCn2c(nc(-c3ccc(F)cc3)c2Nc2ccc(Cl)cc2)C1    5.64

# next compound below
What value of pIC50 has been reported for the following compound? "CC(C)(N)C(=O)N1CCn2c(nc(-c3ccc(F)cc3)c2Nc2ccc(F)c(F)c2)C1" 5.32

====

measurement.notes: in vitro
condition.info: human, microsomes
Description: Metabolic stability in human hepatic microsomes assessed as extraction ratio by LC/MS/MS analysis
recorded.endpoint: hepatic extraction ratio

1) CC(C)(N)C(=O)N1CCn2c(nc(-c3ccc(F)cc3)c2Nc2ccc(F)c(F)c2)C1    0.39
2) CC(C)(N)C(=O)N1CCn2c(nc(-c3ccc(F)cc3)c2Nc2ccc(Cl)cc2)C1    0.54

# next molecule below
What value of hepatic extraction ratio has been reported for the following molecule? "CC(C)(N)C(=O)N1CCn2c(nc(-c3ccc(F)cc3)c2Nc2ccc(Cl)c(F)c2)C1" 0.48

====

measurement.notes: in vitro
condition.info: mouse, microsomes
Description: Metabolic stability in mouse hepatic microsomes assessed as extraction ratio by LC/MS/MS analysis
recorded.endpoint: hepatic extraction ratio
One number for each entry.

# example entries with known answers
1. CC(C)(N)C(=O)N1CCn2c(nc(-c3ccc(F)cc3)c2Nc2ccc(Cl)cc2)C1    0.17
2. CC(C)(N)C(=O)N1CCn2c(nc(-c3ccc(F)cc3)c2Nc2ccc(F)c(F)c2)C1    0.17

What value of hepatic extraction ratio has been reported for the following compound? "CC(C)(N)C(=O)N1CCn2c(nc(-c3ccc(F)cc3)c2Nc2ccc(Cl)c(F)c2)C1" 0.76
